All figures here come from PubChem BioAssay AID2060899.

# Test system: 565726-208-R1-J5-PDC complex spheroids, growth inhibition
# measurement protocol: Anticancer human tumor 565726-208-R1-J5-PDC patient-derived pancreatic adenocarcinoma cell line growth inhibition [RAS]
# test context: curve of first compound; second compound 0.000949 µM
metric name: pIC50
Numbers only, as −log10 of the molar value.

Use the examples below as a reference point.
* CCc1c2c(nc3ccc(O)cc13)-c1cc3c(c(=O)n1C2)COC(=O)[C@]3(O)CC + CCn1c(-c2cccnc2C(C)OC)c2c3cc(ccc31)N1CCOC(CC(NC(=O)C(C(C)C)N(C)C(=O)C3(F)CCN(C(=O)C#CC(C)(C)N(C)C)CC3)C(=O)N3CCCC(N3)C(=O)OCC(C)(C)C2)C1 | 8.63
* CC1(O)CCCC1n1c(=O)c(C(F)F)cc2cnc(NC3CCN(S(C)(=O)=O)CC3)nc21 (stereo not given) + CCn1c(-c2cc(N3CCN(C)CC3)cnc2C(C)OC)c2c3cc(ccc31)-c1csc(n1)CC(NC(=O)C1CC1C)C(=O)N1CCCC(N1)C(=O)OCC(C)(C)C2 | 6.00
* O=C(c1ccc(F)c(F)c1Nc1ccc(I)cc1F)N1CC(O)([C@@H]2CCCCN2)C1 + CCn1c(-c2cc(N3CCN(C)CC3)cnc2C(C)OC)c2c3cc(ccc31)-c1csc(n1)CC(NC(=O)C1CC1C)C(=O)N1CCCC(N1)C(=O)OCC(C)(C)C2 | 6.99

Please state pIC50 for every compound in the list that follows.
1. C=CC(=O)Nc1cc(Nc2nccc(-c3cn(C)c4ccccc34)n2)c(OC)cc1N(C)CCN(C)C + CCn1c(-c2cc(N3CCN(C)CC3)cnc2C(C)OC)c2c3cc(ccc31)-c1csc(n1)CC(NC(=O)C1CC1C)C(=O)N1CCCC(N1)C(=O)OCC(C)(C)C2
2. Nc1ccn(C2OC(CO)C(O)C2(F)F)c(=O)n1 (stereo not given) + CCn1c(-c2cc(N3CCN(C)CC3)cnc2C(C)OC)c2c3cc(ccc31)-c1csc(n1)CC(NC(=O)C1CC1C)C(=O)N1CCCC(N1)C(=O)OCC(C)(C)C2

Reply |
6.73
7.66

* * *

# Tested on: 565726-208-R1-J5-PDC complex spheroids, growth inhibition
# measurement protocol: Anticancer human tumor 565726-208-R1-J5-PDC cell line growth inhibition [RAS];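 note: spheroids exposed to compounds for seven days before readout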;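 for viability, T/C: 100% = DMSO vehicle control viability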
# test context: second compound 0.1 µM; first compound 0.316 µM; stronger effect = lower value
metric name: viability, T/C (%)
One number for each entry, in %.

Consider the worked cases shown below.
* O=C(c1ccc(F)c(F)c1Nc1ccc(I)cc1F)N1CC(O)([C@@H]2CCCCN2)C1 + C#Cc1c(F)ccc2cc(O)cc(-c3ncc4c(N5CC6CCC(C5)N6)nc(OCC56CCCN5CC(F)C6)nc4c3F)c12 | 63.6
* Cc1nc(N2CCC3(CC2)COC(C)C3N)c(CO)nc1Sc1ccnc(N)c1Cl (centres undefined) + C#Cc1c(F)ccc2cc(O)cc(-c3ncc4c(N5CC6CCC(C5)N6)nc(OCC56CCCN5CC(F)C6)nc4c3F)c12 | 71.6
* Cc1nc(N2CCC3(CC2)COC(C)C3N)c(CO)nc1Sc1ccnc(N)c1Cl (centres undefined) + C=CC(=O)N1CCN(c2nc(OCC3CCCN3C)nc3c(F)c(-c4nc(N)cc(C)c4C(F)(F)F)c(Cl)cc23)C(C)C1 | 80.6
* O=C(c1ccc(F)c(F)c1Nc1ccc(I)cc1F)N1CC(O)([C@@H]2CCCCN2)C1 + C=CC(=O)N1CCN(c2nc(OCC3CCCN3C)nc3c(F)c(-c4nc(N)cc(C)c4C(F)(F)F)c(Cl)cc23)C(C)C1 | 60
* CCC(CC)c1cc(NC2CCC(N)C2)n2nccc2n1 (centres undefined) + C#Cc1c(F)ccc2cc(O)cc(-c3ncc4c(N5CC6CCC(C5)N6)nc(OCC56CCCN5CC(F)C6)nc4c3F)c12 | 96.9
* C[C@@H](NC(=O)c1ncnc(N)c1Cl)c1ncc(C(=O)Nc2cc(C(F)(F)F)c(Cl)cn2)s1 + C#Cc1c(F)ccc2cc(O)cc(-c3ncc4c(N5CC6CCC(C5)N6)nc(OCC56CCCN5CC(F)C6)nc4c3F)c12 | 107
* CC(C)NCC(C(=O)N1CCN(c2ncnc3c2C(C)CC3O)CC1)c1ccc(Cl)cc1 (centres undefined) + C#Cc1c(F)ccc2cc(O)cc(-c3ncc4c(N5CC6CCC(C5)N6)nc(OCC56CCCN5CC(F)C6)nc4c3F)c12 | 80.3
* CCC(CC)c1cc(NC2CCC(N)C2)n2nccc2n1 (centres undefined) + C=CC(=O)N1CCN(c2nc(OCC3CCCN3C)nc3c(F)c(-c4nc(N)cc(C)c4C(F)(F)F)c(Cl)cc23)C(C)C1 | 102
* CC(=O)OC12COC1CC(O)C1(C)C(=O)C(O)C3=C(C)C(OC(=O)C(O)C(NC(=O)OC(C)(C)C)c4ccccc4)CC(O)(C(OC(=O)c4ccccc4)C21)C3(C)C (centres undefined) + C#Cc1c(F)ccc2cc(O)cc(-c3ncc4c(N5CC6CCC(C5)N6)nc(OCC56CCCN5CC(F)C6)nc4c3F)c12 | 19.1
* CCN1CCN(Cc2ccc(Nc3ncc(F)c(-c4cc(F)c5nc(C)n(C(C)C)c5c4)n3)nc2)CC1 + C#Cc1c(F)ccc2cc(O)cc(-c3ncc4c(N5CC6CCC(C5)N6)nc(OCC56CCCN5CC(F)C6)nc4c3F)c12 | 76.5

Provide viability, T/C for all items below, preserving their order.
1. Nc1ccn(C2OC(CO)C(O)C2(F)F)c(=O)n1 (centres undefined) + C#Cc1c(F)ccc2cc(O)cc(-c3ncc4c(N5CC6CCC(C5)N6)nc(OCC56CCCN5CC(F)C6)nc4c3F)c12
2. Nc1ccn(C2OC(CO)C(O)C2(F)F)c(=O)n1 (centres undefined) + C=CC(=O)N1CCN(c2nc(OCC3CCCN3C)nc3c(F)c(-c4nc(N)cc(C)c4C(F)(F)F)c(Cl)cc23)C(C)C1
3. NC1c2ccccc2OC12CCN(c1cnc3c(N4CCCc5ncccc54)n[nH]c3n1)CC2 (centres undefined) + C#Cc1c(F)ccc2cc(O)cc(-c3ncc4c(N5CC6CCC(C5)N6)nc(OCC56CCCN5CC(F)C6)nc4c3F)c12
4. C=CC(=O)N1CCN(c2nc(OCC3CCCN3C)nc3c(F)c(-c4nc(N)cc(C)c4C(F)(F)F)c(Cl)cc23)C(C)C1 (centres undefined) + C#Cc1c(F)ccc2cc(O)cc(-c3ncc4c(N5CC6CCC(C5)N6)nc(OCC56CCCN5CC(F)C6)nc4c3F)c12

Reply |
1: 42.8; 2: 47.5; 3: 74.4; 4: 110

* * *

# System: 565726-208-R1-J5-PDC complex spheroids, growth inhibition
# measurement protocol: Anticancer human tumor 565726-208-R1-J5-PDC cell line growth inhibition [RAS];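 note: spheroids exposed to compounds for seven days before readout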
# test context: curve of first compound; second compound 0.00316 µM
metric name: IC50

* CC(Nc1ccc2c(c1)OCCn1cc(N3C(=O)OCC3C(F)F)nc1-2)C(N)=O (stereo not given) + C=CC(=O)N1CCN(c2nc(OCC3CCCN3C)nc3c(F)c(-c4nc(N)cc(C)c4C(F)(F)F)c(Cl)cc23)C(C)C1 | > 10000 nM
* CC(=O)OC12COC1CC(O)C1(C)C(=O)C(O)C3=C(C)C(OC(=O)C(O)C(NC(=O)OC(C)(C)C)c4ccccc4)CC(O)(C(OC(=O)c4ccccc4)C21)C3(C)C (stereo not given) + C=CC(=O)N1CCN(c2nc(OCC3CCCN3C)nc3c(F)c(-c4nc(N)cc(C)c4C(F)(F)F)c(Cl)cc23)C(C)C1 | < 31.6 nM
* CCN1CCN(Cc2ccc(Nc3ncc(F)c(-c4cc(F)c5nc(C)n(C(C)C)c5c4)n3)nc2)CC1 + C=CC(=O)N1CCN(c2nc(OCC3CCCN3C)nc3c(F)c(-c4nc(N)cc(C)c4C(F)(F)F)c(Cl)cc23)C(C)C1 | > 1000 nM
* C=CC(=O)Nc1cc(Nc2nccc(-c3cn(C)c4ccccc34)n2)c(OC)cc1N(C)CCN(C)C + C=CC(=O)N1CCN(c2nc(OCC3CCCN3C)nc3c(F)c(-c4nc(N)cc(C)c4C(F)(F)F)c(Cl)cc23)C(C)C1 | > 1000 nM

Ask | Recorded IC50 for C[C@@H](NC(=O)c1ncnc(N)c1Cl)c1ncc(C(=O)Nc2cc(C(F)(F)F)c(Cl)cn2)s1 + C=CC(=O)N1CCN(c2nc(OCC3CCCN3C)nc3c(F)c(-c4nc(N)cc(C)c4C(F)(F)F)c(Cl)cc23)C(C)C1 , please?
Reply | > 10000 nM

* * *

Please provide measured viability, T/C for the entries that follow.
# System: 565726-208-R1-J5-PDC complex spheroids, growth inhibition
# measurement protocol: Anticancer human tumor 565726-208-R1-J5-PDC cell line growth inhibition [RAS];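 note: spheroids exposed to compounds for seven days before readout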;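 for viability, T/C: 100% = DMSO vehicle control viability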
# test context: second compound 0.0316 µM; first compound 1 µM; stronger effect = lower value
Answers are plain numbers, in %.

Answered examples (3):
* CC(=O)OC12COC1CC(O)C1(C)C(=O)C(O)C3=C(C)C(OC(=O)C(O)C(NC(=O)OC(C)(C)C)c4ccccc4)CC(O)(C(OC(=O)c4ccccc4)C21)C3(C)C (centres undefined) + C#Cc1c(F)ccc2cc(O)cc(-c3ncc4c(N5CC6CCC(C5)N6)nc(OCC56CCCN5CC(F)C6)nc4c3F)c12 | 19.1
* Nc1ccn(C2OC(CO)C(O)C2(F)F)c(=O)n1 (centres undefined) + C=CC(=O)N1CCN(c2nc(OCC3CCCN3C)nc3c(F)c(-c4nc(N)cc(C)c4C(F)(F)F)c(Cl)cc23)C(C)C1 | 49
* CCC(CC)c1cc(NC2CCC(N)C2)n2nccc2n1 (centres undefined) + C=CC(=O)N1CCN(c2nc(OCC3CCCN3C)nc3c(F)c(-c4nc(N)cc(C)c4C(F)(F)F)c(Cl)cc23)C(C)C1 | 88.1

Go through the items and report each one's viability, T/C.
1. Cc1nc(N2CCC3(CC2)COC(C)C3N)c(CO)nc1Sc1ccnc(N)c1Cl (centres undefined) + C#Cc1c(F)ccc2cc(O)cc(-c3ncc4c(N5CC6CCC(C5)N6)nc(OCC56CCCN5CC(F)C6)nc4c3F)c12
2. CC(Nc1ccc2c(c1)OCCn1cc(N3C(=O)OCC3C(F)F)nc1-2)C(N)=O (centres undefined) + C=CC(=O)N1CCN(c2nc(OCC3CCCN3C)nc3c(F)c(-c4nc(N)cc(C)c4C(F)(F)F)c(Cl)cc23)C(C)C1
3. NC1c2ccccc2OC12CCN(c1cnc3c(N4CCCc5ncccc54)n[nH]c3n1)CC2 (centres undefined) + C#Cc1c(F)ccc2cc(O)cc(-c3ncc4c(N5CC6CCC(C5)N6)nc(OCC56CCCN5CC(F)C6)nc4c3F)c12

Reply |
1: 77.1; 2: 67.9; 3: 58.8

For each listed entry, give its viability, T/C.
1. O=C(c1ccc(F)c(F)c1Nc1ccc(I)cc1F)N1CC(O)([C@@H]2CCCCN2)C1 + C#Cc1c(F)ccc2cc(O)cc(-c3ncc4c(N5CC6CCC(C5)N6)nc(OCC56CCCN5CC(F)C6)nc4c3F)c12
2. C=CC(=O)Nc1cc(Nc2nccc(-c3cn(C)c4ccccc34)n2)c(OC)cc1N(C)CCN(C)C + C#Cc1c(F)ccc2cc(O)cc(-c3ncc4c(N5CC6CCC(C5)N6)nc(OCC56CCCN5CC(F)C6)nc4c3F)c12
3. CCC(CC)c1cc(NC2CCC(N)C2)n2nccc2n1 (centres undefined) + C#Cc1c(F)ccc2cc(O)cc(-c3ncc4c(N5CC6CCC(C5)N6)nc(OCC56CCCN5CC(F)C6)nc4c3F)c12
4. CC(C)NCC(C(=O)N1CCN(c2ncnc3c2C(C)CC3O)CC1)c1ccc(Cl)cc1 (centres undefined) + C#Cc1c(F)ccc2cc(O)cc(-c3ncc4c(N5CC6CCC(C5)N6)nc(OCC56CCCN5CC(F)C6)nc4c3F)c12
5. CCN1CCN(Cc2ccc(Nc3ncc(F)c(-c4cc(F)c5nc(C)n(C(C)C)c5c4)n3)nc2)CC1 + C#Cc1c(F)ccc2cc(O)cc(-c3ncc4c(N5CC6CCC(C5)N6)nc(OCC56CCCN5CC(F)C6)nc4c3F)c12
6. CC(C)NCC(C(=O)N1CCN(c2ncnc3c2C(C)CC3O)CC1)c1ccc(Cl)cc1 (centres undefined) + C=CC(=O)N1CCN(c2nc(OCC3CCCN3C)nc3c(F)c(-c4nc(N)cc(C)c4C(F)(F)F)c(Cl)cc23)C(C)C1
7. CC(Nc1ccc2c(c1)OCCn1cc(N3C(=O)OCC3C(F)F)nc1-2)C(N)=O (centres undefined) + C#Cc1c(F)ccc2cc(O)cc(-c3ncc4c(N5CC6CCC(C5)N6)nc(OCC56CCCN5CC(F)C6)nc4c3F)c12

Reply |
[33.3, 103, 74.5, 76, 89.1, 89.8, 60.4]

State the recorded viability, T/C for every item in the following list.
1. C[C@@H](NC(=O)c1ncnc(N)c1Cl)c1ncc(C(=O)Nc2cc(C(F)(F)F)c(Cl)cn2)s1 + C#Cc1c(F)ccc2cc(O)cc(-c3ncc4c(N5CC6CCC(C5)N6)nc(OCC56CCCN5CC(F)C6)nc4c3F)c12
2. CC1(O)CCCC1n1c(=O)c(C(F)F)cc2cnc(NC3CCN(S(C)(=O)=O)CC3)nc21 (centres undefined) + C=CC(=O)N1CCN(c2nc(OCC3CCCN3C)nc3c(F)c(-c4nc(N)cc(C)c4C(F)(F)F)c(Cl)cc23)C(C)C1
3. CC(=O)OC12COC1CC(O)C1(C)C(=O)C(O)C3=C(C)C(OC(=O)C(O)C(NC(=O)OC(C)(C)C)c4ccccc4)CC(O)(C(OC(=O)c4ccccc4)C21)C3(C)C (centres undefined) + C=CC(=O)N1CCN(c2nc(OCC3CCCN3C)nc3c(F)c(-c4nc(N)cc(C)c4C(F)(F)F)c(Cl)cc23)C(C)C1

Reply |
102
68.8
21

Give viability, T/C for all molecules that follow.
1. C=CC(=O)Nc1cc(Nc2nccc(-c3cn(C)c4ccccc34)n2)c(OC)cc1N(C)CCN(C)C + C=CC(=O)N1CCN(c2nc(OCC3CCCN3C)nc3c(F)c(-c4nc(N)cc(C)c4C(F)(F)F)c(Cl)cc23)C(C)C1
2. CC1(O)CCCC1n1c(=O)c(C(F)F)cc2cnc(NC3CCN(S(C)(=O)=O)CC3)nc21 (centres undefined) + C#Cc1c(F)ccc2cc(O)cc(-c3ncc4c(N5CC6CCC(C5)N6)nc(OCC56CCCN5CC(F)C6)nc4c3F)c12
3. O=C(c1ccc(F)c(F)c1Nc1ccc(I)cc1F)N1CC(O)([C@@H]2CCCCN2)C1 + C=CC(=O)N1CCN(c2nc(OCC3CCCN3C)nc3c(F)c(-c4nc(N)cc(C)c4C(F)(F)F)c(Cl)cc23)C(C)C1

Reply |
1. 114
2. 56.2
3. 38.1
